# key: entry, value: EC50
biological target: human muscarinic M2 receptor (Homo sapiens, UniProt P08172); test: Alphascreen Surefire phospho-ERK1/2 functional assay, M2; type: cell-based; conditions: CHO cells stably expressing human M2; agonist 5 min, 37° C.; read-out: pEC50 M2 (converted)
Sequence (P08172 whole entry): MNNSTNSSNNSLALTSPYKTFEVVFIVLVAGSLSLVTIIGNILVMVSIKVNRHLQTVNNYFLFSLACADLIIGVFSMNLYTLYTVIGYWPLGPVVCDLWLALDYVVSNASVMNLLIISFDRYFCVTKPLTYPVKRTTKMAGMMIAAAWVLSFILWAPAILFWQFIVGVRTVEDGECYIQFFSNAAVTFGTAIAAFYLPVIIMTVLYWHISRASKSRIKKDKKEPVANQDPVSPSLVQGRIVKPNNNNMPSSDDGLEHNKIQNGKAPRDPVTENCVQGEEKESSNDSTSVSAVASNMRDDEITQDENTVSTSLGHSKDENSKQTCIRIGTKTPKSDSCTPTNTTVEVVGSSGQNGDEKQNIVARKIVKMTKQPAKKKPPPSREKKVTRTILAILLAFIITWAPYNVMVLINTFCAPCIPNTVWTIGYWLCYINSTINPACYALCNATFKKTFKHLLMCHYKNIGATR

- compound: "Cc1noc(N2C3COCC2CC(N2CCC(n4cccn4)CC2)C3)n1 (single isomer, unassigned) [9-1 Isomer 1]"
  EC50: "> 20 µM"
- compound: "Cc1noc(N2C3CCC2CC(N2CCC4(CC2)CNC(=O)O4)C3)n1 (single isomer, unassigned) [6-4 Isomer 2]"
  EC50: "> 20 µM"
- compound: "Cc1noc(N2CC3CC(N4CCC5(CC4)CNC(=O)C5)CC2C3)n1 (single isomer, unassigned) [11-2 Isomer 2]"
  EC50: "> 20 µM"
- compound: "Cc1noc(N2CC3CC(N4CCC5(CC4)CNC(=O)O5)CC2C3)n1 (single isomer, unassigned) [11-3 Isomer 2]"
  EC50: "> 20 µM"
- compound: "CCC1(NC(=O)C2CCN(C3CC4CCC(C3)N4c3nc(C)no3)CC2)CCC1 (single isomer, unassigned) [12-8 Isomer 2]"
  EC50: "2.45 µM"
- compound: "Cc1noc(N2CCCC(N3CCC(N4C[C@H](F)C[C@@H]4CO)CC3)CC2)n1 (single isomer, unassigned) [10-7 Isomer 1]"
  EC50: "> 20 µM"
- compound: "Cc1noc(N2C3CCC2CC(N2CCC(C(=O)NC4(C)CCC4)CC2)C3)n1 (single isomer, unassigned) [6-5 Isomer 2]"
  EC50: "> 20 µM"
- compound: "Cc1noc(N2C3CCCC2CC(N2CCC4(CC2)CNC(=O)O4)C3)n1 (single isomer, unassigned) [8-3 Isomer 1]"
  EC50: "> 20 µM"
- compound: "Cc1noc(N2CCC3(CC(N4CCC(n5cccn5)CC4)C3)C2)n1 (single isomer, unassigned) [2-1 Isomer 2]"
  EC50: "> 20 µM"
- compound: "Cc1noc(N2CC3CCC2CC3N2CCC3(CC2)CNC(=O)O3)n1 (single isomer, unassigned) [12-2 Isomer 2]"
  EC50: "> 20 µM"
- compound: "Cc1noc(N2CC3CCC2CC3N2CCC(n3cccn3)CC2)n1 (single isomer, unassigned) [7-1 Isomer 1]"
  EC50: "> 20 µM"
- compound: "CCN(CC)C(=O)[C@H]1[C@@H]2CN(C3CC4COCC(C3)N4c3nc(C)no3)C[C@@H]21 (single isomer, unassigned) [9-2 Isomer 2]"
  EC50: "> 20 µM"
- compound: "Cc1noc(N2CCCC(N3CCC4(CC3)CNC(=O)C4)CC2)n1 (single isomer, unassigned) [10-2 Isomer 1]"
  EC50: "> 20 µM"
- compound: "Cc1noc(N2C3CCC2CC(N2CCC(n4cccn4)CC2)C3)n1 (single isomer, unassigned) [6-1 Isomer 1]"
  EC50: "> 20 µM"
- compound: "Cc1noc(N2CC3CCC2CC3N2CCC3(CC2)CNC(=O)C3)n1 (single isomer, unassigned) [12-1 Isomer 2]"
  EC50: "> 20 µM"
